Assay Procedure: In vivo antitumor efficacy in nude mice 0-24 hr after iv dose of 25 mg/kg expressed as Area under the curve
Assay type: ADME, organism-based
Set-up: time < 24 hr, dose 25 mg/kg, route intravenous
Study Conditions: mouse
Parameter Measured: AUC at 24 h (ng·h/mL)
Numbers only; they are read as ng·h/mL.

Sample O=C(Cc1cc[n+]([O-])cc1)N1CCN(C2c3ccc(Cl)cc3CCc3cc(Br)cnc32)CC1 (stereo unspecified) ; AUC at 24 h observed: 23400

----------
Tgt: Protein farnesyltransferase (Homo sapiens, UniProt P49354+P49356)
Assay Procedure: In vitro inhibition of farnesyltransferase farnesylation of the H-ras oncogene
Assay type: protein-complex assay
Parameter Measured: pIC50
Scale for pIC50: -log10 of concentration given in mol/L; no unit attached.

Observe how each entry below is paired with its result.
{"columns": ["Compound", "pIC50"],
 "data": [
  ["CN1CCC(CC(=O)N2CCN(C3c4ccc(Cl)cc4CCc4cccnc43)CC2)CC1 (stereo not given)", 5.85],
  ["CN1CCCC(CC(=O)N2CCN([C@@H]3c4ccc(Cl)cc4CCc4cccnc43)CC2)C1 (stereo not given in full)", 6.15],
  ["CC(=O)N1CCC(CC(=O)N2CCN(C3c4ccc(Cl)cc4CCc4cc(Br)cnc43)CC2)CC1 (stereo not given)", 6.99],
  ["COCC[C@H]1CN(C2c3ccc(Cl)cc3CCc3cc(Br)cnc32)CCN1C(=O)CC1CCNCC1 (stereo not given in full)", 7.16]
]}

Sample `O=C(CC1CCNCC1)N1CCN([C@@H]2c3ccc(Cl)cc3CCc3cc(Br)cnc32)CC1` ; pIC50 observed: 7.06

----------
Assay Procedure: In vivo antitumor efficacy in cynomolgus monkeys by injecting a dose of 5 mg/kg, as HCl salt in saline solution, perorally and the total drug exposure was determined (0-8 hr)
Assay type: ADME, organism-based, Macaca fascicularis
Set-up: time < 8 hr, dose 5 mg/kg, route oral
Study Conditions: cynomolgus monkey, po
Parameter Measured: AUC at 8 h (ng·h/mL)
Numbers only; they are read as ng·h/mL.

Sample NC(=O)N1CCC(CC(=O)N2CCN(C3c4ccc(Cl)cc4CCc4cc(Br)cnc43)CC2)CC1 (stereo unspecified) ; AUC at 8 h observed: 4270

----------
Assay Procedure: Maximal plasma concentration in nude mice after 25 mg/kg oral dose
Type: ADME, organism-based
Set-up: dose 25 mg/kg, route oral
Study Conditions: mouse
Parameter Measured: Cmax

Sample NC(=O)N1CCC(CC(=O)N2CCN(C3c4ccc(Cl)cc4CCc4cc(Br)cnc43)CC2)CC1 (stereo unspecified) ; Cmax observed: 71.1 µM

----------
Tgt: Protein farnesyltransferase (Homo sapiens, UniProt P49354+P49356)
Assay Procedure: In vitro inhibition of farnesyltransferase farnesylation of the H-ras oncogene
Type: protein-complex assay
Parameter Measured: IC50 (nM)
Numbers only; they are read as nM.

Observe how each entry below is paired with its result.
{"columns": ["Compound", "Tgt", "Test Value"],
 "data": [
  ["O=C(Nc1cc[n+]([O-])cc1)N1CCN(C2c3ccc(Cl)cc3CCc3cccnc32)CC1 (centres undefined)", "Protein farnesyltransferase (Homo sapiens, UniProt P49354+P49356)", 1800],
  ["CC(C)(C(=O)N1CCN(C2c3ccc(Cl)cc3CCc3cccnc32)CC1)c1cc[n+]([O-])cc1 (centres undefined)", "Protein farnesyltransferase (Homo sapiens, UniProt P49354+P49356)", 2200]
]}

Form field, IC50 with Protein farnesyltransferase (Homo sapiens, UniProt P49354+P49356), item CC(C)(C(=O)N1CCN(C2c3ccc(Cl)cc3CCc3cccnc32)CC1)c1ccncc1 (centres undefined) : 1740

Form field, IC50 with Protein farnesyltransferase (Homo sapiens, UniProt P49354+P49356), item `CC(=O)N1CCC(C(=O)N2CCN([C@H]3c4ccc(Cl)cc4CCc4cccnc43)CC2)CC1` : 1800

Form field, IC50 with Protein farnesyltransferase (Homo sapiens, UniProt P49354+P49356), item O=C(Cc1cccnc1)N1CCN(C(c2ccncc2)c2ccc(Cl)cc2)CC1 (centres undefined) : 48000

Form field, IC50 with Protein farnesyltransferase (Homo sapiens, UniProt P49354+P49356), item CNC(=O)N1CCC(CC(=O)N2CCN(C3c4ccc(Cl)cc4CCc4cccnc43)CC2)CC1 (centres undefined) : 1050

Form field, IC50 with Protein farnesyltransferase (Homo sapiens, UniProt P49354+P49356), item CN1CCC(NC(=O)N2CCN(C3c4ccc(Cl)cc4CCc4cccnc43)CC2)CC1 (centres undefined) : 470

Form field, IC50 with Protein farnesyltransferase (Homo sapiens, UniProt P49354+P49356), item N[C@@H](CS)C(=O)N1CCN(C2c3ccc(Cl)cc3CCc3cc(Br)cnc32)CC1 (some centres undefined) : 2100

Form field, IC50 with Protein farnesyltransferase (Homo sapiens, UniProt P49354+P49356), item CC(=O)C1CCC(C(=O)N2CCN(C3c4ccc(Cl)cc4CCc4cccnc43)CC2)CC1 (centres undefined) : 1240

Data credit: ChEMBL document CHEMBL1131493
